Taken from patent US20250352659A1.

assay name: Conjugator-antibody conjugate maleimide hydrolysis (ring opening) kinetics by reduced LCMS
Type: physicochemical
settings: pH 7, time point 7 h
quantity: RO (%) HC
Provide only the numeric value, understood in %.

Example entries and their recorded answers appear below.
compound | RO (%) HC
CN(C)C(=O)CCNC(=O)NCC(CN)N1C(=O)C=CC1=O (stereo not drawn) | 99.07
CN(C)C(=O)CN(C)C(=O)OCC(CN)N1C(=O)C=CC1=O (stereo not drawn) | 99.47
CC(C)N(CCC(=O)N(C)C)C(=O)OCC(CN)N1C(=O)C=CC1=O (stereo not drawn) | 100
CN(C)C(=O)CCOCC(N)CN1C(=O)C=CC1=O (stereo not drawn) | 87.98
CN(C)C(=O)CCNC(=O)OCCC(CN)N1C(=O)C=CC1=O (stereo not drawn) | 99.68
CN(C)C(=O)CCCCC(CN)N1C(=O)C=CC1=O (stereo not drawn) | 98.26
NCC(COC(=O)NCCOCCOCCOCCOCCC(=O)O)N1C(=O)C=CC1=O (stereo not drawn) | 99.07
CN(C)C(=O)CCNC(=O)OCC(CCN)N1C(=O)C=CC1=O (stereo not drawn) | 33.03

Could you share which RO (%) HC value was measured for CN(C)C(=O)CCOCCC(CN)N1C(=O)C=CC1=O (stereo not drawn) ? 95.45

---

Examples of molecules with documented RO (%) Total follow.
assay name: Conjugator-antibody conjugate maleimide hydrolysis (ring opening) kinetics by reduced LCMS
Format: physicochemical
settings: pH 7, time point 24 h
Response body: numeric value in %, unit text excluded.

GET /values?readout=RO (%) Total&item= CC(C)N(CCC(=O)N(C)C)C(=O)OCC(CN)N1C(=O)C=CC1=O (stereo not drawn) 99.79

Subsequent entry: CN(C)C(=O)CCOCC(N)CN1C(=O)C=CC1=O (stereo not drawn) 91.35

Same question for NCC(COC(=O)NCCOCCOCCOCCOCCC(=O)O)N1C(=O)C=CC1=O (stereo not drawn) please. 99.23

Subsequent entry: CN(C)C(=O)CN(C)C(=O)OCC(CN)N1C(=O)C=CC1=O (stereo not drawn) 98.53

Could you do the same for CN(C)C(=O)CCNC(=O)OCC(CCN)N1C(=O)C=CC1=O (stereo not drawn) , please? 80.51

Again, but for CN(C)C(=O)CCCCC(CN)N1C(=O)C=CC1=O (stereo not drawn) 99.64

Another molecule: CN(C)C(=O)CCOCCC(CN)N1C(=O)C=CC1=O (stereo not drawn) 98.73

Please do the same for CN(C)C(=O)CCNC(=O)NCC(CN)N1C(=O)C=CC1=O (stereo not drawn) as well. 98.70

How about CN(C)C(=O)CCNC(=O)OCCC(CN)N1C(=O)C=CC1=O (stereo not drawn) ? 98.75

---

assay name: Conjugator-antibody conjugate maleimide hydrolysis (ring opening) kinetics by reduced LCMS
Format: physicochemical
settings: pH 7, time point 24 h
# RO (%) LC per record follows
Write the answer as a number in %, unit excluded.

compound | RO (%) LC
CC(C)N(CCC(=O)N(C)C)C(=O)OCC(CN)N1C(=O)C=CC1=O (centres unmarked) | 99.17
CN(C)C(=O)CCNC(=O)NCC(CN)N1C(=O)C=CC1=O (centres unmarked) | 95.87
CN(C)C(=O)CCCCC(CN)N1C(=O)C=CC1=O (centres unmarked) | 100

Please give the measured RO (%) LC for this compound: CN(C)C(=O)CN(C)C(=O)OCC(CN)N1C(=O)C=CC1=O (centres unmarked) 95.48

Would you mind doing NCC(COC(=O)NCCOCCOCCOCCOCCC(=O)O)N1C(=O)C=CC1=O (centres unmarked) as well? 99.66

---

assay name: Conjugator-antibody conjugate maleimide hydrolysis (ring opening) kinetics by reduced LCMS
Type: physicochemical
settings: pH 7, time point 1 h
quantity: RO (%) Total
Value expressed in %; do not type the unit.

Consider the worked cases shown below.
compound | RO (%) Total
CN(C)C(=O)CCCCC(CN)N1C(=O)C=CC1=O (centres unmarked) | 37.29
CN(C)C(=O)CCNC(=O)NCC(CN)N1C(=O)C=CC1=O (centres unmarked) | 40.92
CC(C)N(CCC(=O)N(C)C)C(=O)OCC(CN)N1C(=O)C=CC1=O (centres unmarked) | 59.58

Query: RO (%) Total; subject: NCC(COC(=O)NCCOCCOCCOCCOCCC(=O)O)N1C(=O)C=CC1=O (centres unmarked) 44.47

Repeat for the following compound: CN(C)C(=O)CCNC(=O)OCC(CCN)N1C(=O)C=CC1=O (centres unmarked) 3.05

Now consider CN(C)C(=O)CCOCC(N)CN1C(=O)C=CC1=O (centres unmarked) . 37.71

Same question for CN(C)C(=O)CCOCCC(CN)N1C(=O)C=CC1=O (centres unmarked) please. 39.44

# iterate: CN(C)C(=O)CCNC(=O)OCCC(CN)N1C(=O)C=CC1=O (centres unmarked) 38.10

---

assay name: Conjugator-antibody conjugate maleimide hydrolysis (ring opening) kinetics by reduced LCMS
Format: physicochemical
settings: pH 7, time point 7 h
quantity: RO (%) LC
Give the value, in units of %, as a plain number.

Below, each entry is followed by its recorded RO (%) LC result.
compound | quantity | observed
CC(C)N(CCC(=O)N(C)C)C(=O)OCC(CN)N1C(=O)C=CC1=O (stereo not drawn) | RO (%) LC | 93.56
CN(C)C(=O)CCOCCC(CN)N1C(=O)C=CC1=O (stereo not drawn) | RO (%) LC | 72.00
CN(C)C(=O)CN(C)C(=O)OCC(CN)N1C(=O)C=CC1=O (stereo not drawn) | RO (%) LC | 94.42
CN(C)C(=O)CCNC(=O)NCC(CN)N1C(=O)C=CC1=O (stereo not drawn) | RO (%) LC | 88.53
CN(C)C(=O)CCNC(=O)OCC(CCN)N1C(=O)C=CC1=O (stereo not drawn) | RO (%) LC | 14.6
NCC(COC(=O)NCCOCCOCCOCCOCCC(=O)O)N1C(=O)C=CC1=O (stereo not drawn) | RO (%) LC | 95.37
CN(C)C(=O)CCOCC(N)CN1C(=O)C=CC1=O (stereo not drawn) | RO (%) LC | 86.34
CN(C)C(=O)CCNC(=O)OCCC(CN)N1C(=O)C=CC1=O (stereo not drawn) | RO (%) LC | 93.68

Next:
Name the reported RO (%) LC value associated with the compound CN(C)C(=O)CCCCC(CN)N1C(=O)C=CC1=O (stereo not drawn) 83.47
